Please go through the items and note down their IC50.
experimentalSystem: Human ST2-fc (human) (UniProt Q01638)
assay: competition ELISA, coated ST2-fc, competitor IL33-his
Give the value in µg/mL but do not write µg/mL after it.

The binder identified as 5888-357H+L (antibody, V domains shown, murine antibody) VH: QVQLQQSVTELVRPGASVTLSCKASGYRFTDSEMHWVKQTPVHGLEWIGTIDPETGGTVYNQKFKGKAKLTADRSSSTVSMELRSLTSEDSAVYYCTRAFYNDFDDGFAYWGQGTLVTVSA VL: QIVMTQSPAIMSASPGEKVTLTCSASTSVSYMHWYQQKSGTSPKRWIYDTSKLASGVPARFSGSGSGTSYSLTISSMEAEDAATYYCQQWSSNPLTFGAGTKLELK registered its IC50 at 0.62

The binder identified as 5887-537-H1L0 (antibody, human IgG4 S228P, kappa, V domains shown) VH: QVTLKESGPTLVKPTQTLTLTCTFSGFSLSTSGMGVGWIRQPPGKALEWLAHIWWDDVKQYNPALKSRLTITKDTSKSQVVLTMTNMDPVDTATYYCARIGGDYDYFDFWGQGTTVTVSS VL: DIVLTQSPASLAVSPGQRATITCRASESVEYSGTSLMQWYQQKPGQPPKLLIYVASNVESGVPARFSGSGSGTDFTLTINPVEANDTANYYCQQSRKVPWTFGQGTKLEIKR registered its IC50 at 0.0882

The binder identified as 5888-379-H1L0 (antibody, human IgG4 S228P, kappa, V domains shown, Humanized antibody) VH: QVQLVQSGAEVKKPGASVKVSCKASGYTFINYGMNWVRQAPGQRLEWMGWINTYIGEPTYGDNFKGRVTITRDTSASTAYMELSSLRSEDTAVYYCAREGEGFAYWGQGTLVTVSS VL: DIQMTQSPSSLSASVGDRVTITCKSSQSLLYSGNQNNYLAWYQQKPGKVPKLLIYGASTRESGVPSRFSGSGSGTDFTLTISSLQPEDVATYYCQNDHSYPYTFGGGTKVEIKR registered its IC50 at 0.465

Hello, the source for this data is patent US12624112, in case you need it.
